- Test system: mitochondrial complexes I and II
- Assay details: Inhibition of mitochondrial complexes I and II, stated jointly
- Assay type: cell-based, human
- Experimental setup: pretreatment of H2030BrM3 cells; read-out: IC50, inhibition of complex I and II
Assay endpoint: IC50

QUERY: Look up IC50: O=C(O)c1nn(Cc2ccc(Cl)cc2Cl)c2ccccc12 [LON, reference compound]
RESULT: ~400 µM

----------
- Target desc: mitochondrial Complex I
- Assay details: Mitochondrial complex I activity (OCR) in permeabilized H2030BrM3 cells after 24 h pretreatment
- Experimental setup: FIG. 9
Assay endpoint: Ki

QUERY: Look up Ki: O=C(NCCCCCCCCCC[P+](c1ccccc1)(c1ccccc1)c1ccccc1)c1nn(Cc2ccc(Cl)cc2Cl)c2ccccc12 [Mito-LON, Mito10-lonidamine]
RESULT: 1200 nM

----------
- Target desc: mitochondrial complex II (Homo sapiens, UniProt O14521+P21912+P31040+Q99643)
- Construct: we measured the activity of mitochondrial complexes in H2030BrM3 cells (NSCLC cell line); endogenous in cells
- Sequence (P31040 43-664): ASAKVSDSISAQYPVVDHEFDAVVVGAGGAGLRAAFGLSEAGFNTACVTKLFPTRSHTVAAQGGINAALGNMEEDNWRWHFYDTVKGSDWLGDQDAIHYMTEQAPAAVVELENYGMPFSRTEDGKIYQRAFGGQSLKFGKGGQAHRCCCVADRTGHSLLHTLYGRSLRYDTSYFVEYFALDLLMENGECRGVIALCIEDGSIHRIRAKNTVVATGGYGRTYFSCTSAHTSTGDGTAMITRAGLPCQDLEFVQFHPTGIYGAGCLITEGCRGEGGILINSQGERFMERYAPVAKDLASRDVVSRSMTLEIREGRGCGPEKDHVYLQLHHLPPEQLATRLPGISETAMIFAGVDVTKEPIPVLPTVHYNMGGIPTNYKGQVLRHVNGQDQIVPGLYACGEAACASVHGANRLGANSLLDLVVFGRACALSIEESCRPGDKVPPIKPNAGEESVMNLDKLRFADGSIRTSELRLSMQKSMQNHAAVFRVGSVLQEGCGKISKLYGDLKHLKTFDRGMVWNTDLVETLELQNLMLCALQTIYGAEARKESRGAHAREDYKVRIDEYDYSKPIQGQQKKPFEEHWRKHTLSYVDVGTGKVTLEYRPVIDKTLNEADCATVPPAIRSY
- Sequence (P21912 29-280): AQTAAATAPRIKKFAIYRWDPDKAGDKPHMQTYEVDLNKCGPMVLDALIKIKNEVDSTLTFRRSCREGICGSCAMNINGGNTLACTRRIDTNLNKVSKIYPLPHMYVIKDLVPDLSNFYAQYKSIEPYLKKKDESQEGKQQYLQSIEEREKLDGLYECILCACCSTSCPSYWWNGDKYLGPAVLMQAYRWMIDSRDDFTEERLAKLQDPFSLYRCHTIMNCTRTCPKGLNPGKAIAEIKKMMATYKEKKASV
- Sequence (Q99643 30-169): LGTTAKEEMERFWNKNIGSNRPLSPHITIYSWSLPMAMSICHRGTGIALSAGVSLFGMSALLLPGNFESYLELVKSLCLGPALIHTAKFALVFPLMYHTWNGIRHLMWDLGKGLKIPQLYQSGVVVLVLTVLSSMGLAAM
- Sequence (O14521 57-159): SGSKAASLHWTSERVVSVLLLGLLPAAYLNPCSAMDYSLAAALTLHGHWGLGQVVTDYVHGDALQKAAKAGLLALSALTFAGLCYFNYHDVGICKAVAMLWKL
- Assay details: Mitochondrial complex II activity (OCR) in permeabilized H2030BrM3 cells after 24 h pretreatment
- Experimental setup: FIG. 9
Assay endpoint: pKi
One number for each entry, as −log10 of the molar value.

QUERY: Look up pKi: `O=C(NCCCCCCCCCC[P+](c1ccccc1)(c1ccccc1)c1ccccc1)c1nn(Cc2ccc(Cl)cc2Cl)c2ccccc12`
RESULT: 5.57

----------
- Test system: HK2
- Assay details: HK2 protein levels and mRNA expression in lung cancer lines
- Assay type: cell-based, human
- Experimental setup: FIG. 17; read-out: IC50, ability to decrease HK2 levels
Assay endpoint: IC50

QUERY: Look up IC50: O=C(O)c1nn(Cc2ccc(Cl)cc2Cl)c2ccccc12 [LON, reference compound]
RESULT: 100 to 150 µM

----------
- Target desc: mitochondrial Complex I
- Assay details: Mitochondrial complex I activity (OCR) in permeabilized H2030BrM3 cells after 24 h pretreatment
- Experimental setup: H2030BrM3 lung cancer cells, FIG. 9; read-out: IC50, respiratory complex I
Assay endpoint: pIC50
Answers are plain numbers, as −log10 of the molar value.

QUERY: Give the reported pIC50 for `O=C(NCCCCCCCCCC[P+](c1ccccc1)(c1ccccc1)c1ccccc1)c1nn(Cc2ccc(Cl)cc2Cl)c2ccccc12` (system: mitochondrial Complex I).
RESULT: 5.92
